- assay_text: inhibition of RSV-induced cytopathic effect – HEp-2 cells, primary 10 µM value included (AID 2391)
- measurement_setup: at 10 µM, stronger effect = higher value
About 410 (0.13%) of roughly 310,000 compounds were called active. Not shown: some 2% with an inconclusive outcome. Only a sample is shown. Entries with a potency or affinity are not part of this list.
property: CPE inhibition

>>> result("O=C(CCSc1nnc2scc(-c3ccccc3)n12)Nc1nc(-c2ccccc2)ns1")
"9.19% (inactive)"
>>> result("Nc1ccc(Cl)c[n+]1Cc1cccc2cccnc12")
"50.2% (inactive)"
>>> result("COc1ccc(/C(C)=N/OCC(=O)N=Nc2c(O)[nH]c3ccc(Br)cc23)cc1")
"4.9% (inactive)"
>>> result("COc1ccc(C(c2nnnn2Cc2ccccc2)N2CCN(c3nc4ccccc4s3)CC2)cc1OC (stereo unspecified)")
"8.79% (inactive)"
>>> result("O=C1c2ccccc2C(Nc2ccc3c(c2)OCO3)N1Cc1ccc2c(c1)OCO2 (stereo unspecified)")
"13.8% (inactive)"
>>> result("CCOC(=O)CN1C(=O)N[C@@H](c2ccccc2)C(C(C)=O)=C1C")
"2.81% (inactive)"
>>> result("CCC(C)n1c(SCC(=O)Nc2ccccc2C(F)(F)F)nc2ccsc2c1=O (stereo unspecified)")
"13.6% (inactive)"
>>> result("CCOc1ccc(C2=C/C(=C/c3cccnc3)C(=O)O2)cc1")
"1.93% (inactive)"
>>> result("Cc1cc(C[n+]2cc(Br)ccc2N)c2ncccc2c1")
"81% (inactive)"
>>> result("Nc1scn[n+]1Cc1cccc2cccnc12")
"19.5% (inactive)"
>>> result("Cc1cc(N2CCN(c3ccccc3Cl)CC2)n2cc(-c3ccccc3)nc2n1")
"5.23% (inactive)"

---

- assay_text: inhibition of RSV-induced cytopathic effect – HEp-2 cells, primary 10 µM value included (AID 2391)
- measurement_setup: at 10 µM, stronger effect = higher value
The campaign covered roughly 310,000 compounds. About 410 (0.13%) were called active. Another 2% or so got no clear call; they are omitted. Not all results are given here. Measured potencies and affinities stand elsewhere.
property: CPE inhibition (%)

>>> numeric_value("Cc1c(C)c2ccc(OCC(=O)NCc3ccccn3)cc2oc1=O")
1.94
>>> numeric_value("COc1ccc(S(=O)(=O)NCc2ccco2)cc1NC(=O)c1ccccc1")
3.54
>>> numeric_value("CCN1CCN(c2nc3c(C)cccn3c(=O)c2/C=C(\\C#N)C(=O)NC)CC1")
2.17
>>> numeric_value("O=C(CCCOc1ccc(Cl)cc1Cl)Nc1ccc(O)cc1C(=O)O")
0.3
>>> numeric_value("COc1ccc(OC)c(CCNC(=O)CN2C(=O)CCSc3ccccc32)c1")
-3.24
>>> numeric_value("C=CCNC(=O)COC(=O)c1cc(S(=O)(=O)N2CCCCC2)ccc1Cl")
0.67
>>> numeric_value("C/C(N)=C(/C#N)C(=O)COC(=O)C(NS(=O)(=O)c1ccc(Cl)cc1)C(C)O (stereo not given)")
0.82
>>> numeric_value("CC(C)(C)SCCNS(=O)(=O)c1ccccc1")
2.31
>>> numeric_value("COc1cc(NC(=O)CCCOc2ccc(Cl)cc2Cl)c(C(=O)O)cc1OC")
6.77
>>> numeric_value("O=C(COc1ccccc1[N+](=O)[O-])OCCCOC(=O)COc1ccccc1[N+](=O)[O-]")
0.68
>>> numeric_value("CCCCn1c(N)c(N(CCOC)C(=O)c2cc(CC)c(C)s2)c(=O)[nH]c1=O")
0.21
>>> numeric_value("Oc1ccc(N2CCN(Cc3nc4ccccc4[nH]3)CC2)cc1")
13.2
>>> numeric_value("O=C(COc1ccc2ccccc2c1)Nc1cccc(C(=O)Nc2ccccc2C(=O)O)c1")
20.8
>>> numeric_value("c1ccc(N2CCN(c3nc4ccccc4[nH]3)CC2)nc1")
-2.6
>>> numeric_value("COc1ccc2[nH]cc(C(=O)CN3CCC(C)CC3)c2c1")
0.91
>>> numeric_value("CC(=O)c1ccc(OCCCC(=O)NNC(=O)c2ccccn2)cc1")
1.08
>>> numeric_value("O=C(Nc1ccc(N2CCCC2)c(Cl)c1)c1cccnc1")
5.52
>>> numeric_value("Cc1nn2c(-c3ccccc3)nnc2c2ccccc12")
-0.87
>>> numeric_value("Cc1cccn2c(=O)c(/C=C(\\C#N)C(=O)NCc3ccco3)c(N3CCOCC3)nc12")
1.08
>>> numeric_value("Cc1ccccc1-c1nnc2c3ccccc3c(C)nn12")
-1.91
>>> numeric_value("CC1CN(C(=O)c2cccc(S(=O)(=O)Nc3ccc(Cl)cc3)c2)CC(C)O1 (stereo not given)")
4.6
>>> numeric_value("Cc1nc(CCNS(=O)(=O)c2cccnc2)cs1")
-0.89
>>> numeric_value("C/C(N)=C(/C#N)C(=O)COC(=O)c1ccccc1Oc1ccccc1")
2.44
>>> numeric_value("CCN1C(=O)[C@H]2[C@@H](c3ccc(C)cc3)N3C(=O)N(c4cccc(Cl)c4)C(=O)[C@@]3(CC(C)C)[C@H]2C1=O")
3.11
>>> numeric_value("COc1ccc2[nH]cc(C(=O)CN3CCCCC3)c2c1")
-0.42
>>> numeric_value("CNC(=O)/C(C#N)=C/c1c(N2CCN(c3ccccc3)CC2)nc2c(C)cccn2c1=O")
14.9
>>> numeric_value("O=C(Nc1cccc(NC(=O)c2ccccc2Cl)c1)c1ccco1")
2.07
>>> numeric_value("O=C(NC1CCCCC1)c1ccc(N2CCCC2=O)cc1")
2.08
>>> numeric_value("Cc1cccc(S(=O)(=O)Nc2ccc(-c3cn4ccccc4n3)cc2)c1")
21
>>> numeric_value("CC(Sc1n[nH]c(N)n1)C(=O)Nc1ccccc1-c1ccccc1 (stereo not given)")
-0.4
>>> numeric_value("CC1(C)CC(=O)C=C(NNC(=O)c2ccc(N)cc2)C1")
1.88
>>> numeric_value("Cc1cc(C(=O)OCC(N)=O)c(C)n1-c1ccccc1")
-3.46
>>> numeric_value("C=CCOC(=O)C(C#N)c1nc2ccccc2nc1N1CCN(c2ccccc2OC)CC1 (stereo not given)")
0.49
>>> numeric_value("C/C(N)=C(/C#N)C(=O)COC(=O)c1ccccc1O")
1.5
>>> numeric_value("C/C(N)=C(/C#N)C(=O)COC(=O)c1cc2c(s1)CCC(C)C2 (stereo not given)")
5.48
>>> numeric_value("Cc1[nH]n(-c2ccccc2)c(=O)c1Sc1ccc(Cl)cc1")
2.83
>>> numeric_value("Cc1cc(C)nc(NC(=O)c2c(F)c(F)c(F)c(C(=O)Nc3cc(C)cc(C)n3)c2F)c1")
-2.23
>>> numeric_value("COc1ccccc1N1CCN(Cc2nc3ccccc3[nH]2)CC1")
1.74
>>> numeric_value("C/C(N)=C(/C#N)C(=O)COC(=O)c1cccc2ccccc12")
4.13
>>> numeric_value("COc1ccc(/C(C)=N/NC(=O)C2C3CCCCC32)c(OC)c1 (stereo not given)")
-0.16
>>> numeric_value("CNC(=S)SCCOc1ccccc1")
1.7
>>> numeric_value("CNC(=O)COC(=O)c1cc2c(s1)CCCC2")
1.88
>>> numeric_value("CCC(OC(=O)c1ccco1)C(=O)NCc1ccc(OC)cc1 (stereo not given)")
1.29
>>> numeric_value("O=C(CSc1nc2ccccc2s1)N/N=C/c1ccco1")
0.58
>>> numeric_value("Cc1ccc(OCC(=O)N2c3ccccc3CC2C)c([N+](=O)[O-])n1 (stereo not given)")
-0.02

---

- assay_text: inhibition of RSV-induced cytopathic effect – HEp-2 cells, primary 10 µM value included (AID 2391)
- measurement_setup: at 10 µM, stronger effect = higher value
The campaign covered roughly 310,000 compounds. About 410 (0.13%) were called active. Inconclusive results (about 2%) are left out. The list is a sample of the results. Entries with a potency or affinity are not part of this list.
property: CPE inhibition (%)

>>> numeric_value("Cc1ccc(C)c(S(=O)(=O)N2CCCCC2CCNC(=O)C(=O)NC2CC2)c1 (configuration not stated)")
-1.15
>>> numeric_value("COc1ccc(C(=O)Nc2nc3ccccc3s2)cc1")
4.56
>>> numeric_value("O=C(c1ccc(F)cc1)C1CCN(C(=S)Nc2ccccc2Cl)CC1")
2.44
>>> numeric_value("CCn1c2ccc(F)cc2c2nnc(NN)nc21")
8.49
>>> numeric_value("COc1ccc(C(=O)Nc2nc3ccccc3s2)c(OC)c1")
9.57
>>> numeric_value("CC(=O)Nc1ccc(S(=O)(=O)N2CCCc3ccccc32)cc1")
1.45
>>> numeric_value("CC(C)N(CCO)Cc1nc(C(c2ccccc2)c2ccccc2)no1")
-0.29
>>> numeric_value("COC(=O)Nc1ccc(S(=O)(=O)N2CCCc3ccccc32)cc1")
1.75
>>> numeric_value("O=C(COc1ccc(Br)cc1Cl)NNC(=O)c1ccccc1")
-0.21
>>> numeric_value("O=C(NNC1=NS(=O)(=O)c2ccccc21)c1ccccc1Cl")
1.71
>>> numeric_value("OC(CNC1CCCC1)COc1ccc(Cl)cc1 (configuration not stated)")
-0.21
>>> numeric_value("O=c1[nH]c(COc2ccc(Cl)cc2Cl)nc2ccccc12")
20.4
